biological target: TRPV1 (Rattus norvegicus); construct: using cultured rat dorsal root ganglion cells which express TRPV1 abundantly; endogenous in cells; host or cells: primary culture of dorsal root ganglion cells from 7 day old Wistar rat; assay: TRPV1 agonist activity by intracellular calcium level (FLIPR method); assay type: cell-based; settings: 1 μM; rat dorsal root ganglion primary culture cells; read-out: Value (%) when fluorescence intensity for capsaicin (1 μM) is 100%
Sequence (O35433 whole entry): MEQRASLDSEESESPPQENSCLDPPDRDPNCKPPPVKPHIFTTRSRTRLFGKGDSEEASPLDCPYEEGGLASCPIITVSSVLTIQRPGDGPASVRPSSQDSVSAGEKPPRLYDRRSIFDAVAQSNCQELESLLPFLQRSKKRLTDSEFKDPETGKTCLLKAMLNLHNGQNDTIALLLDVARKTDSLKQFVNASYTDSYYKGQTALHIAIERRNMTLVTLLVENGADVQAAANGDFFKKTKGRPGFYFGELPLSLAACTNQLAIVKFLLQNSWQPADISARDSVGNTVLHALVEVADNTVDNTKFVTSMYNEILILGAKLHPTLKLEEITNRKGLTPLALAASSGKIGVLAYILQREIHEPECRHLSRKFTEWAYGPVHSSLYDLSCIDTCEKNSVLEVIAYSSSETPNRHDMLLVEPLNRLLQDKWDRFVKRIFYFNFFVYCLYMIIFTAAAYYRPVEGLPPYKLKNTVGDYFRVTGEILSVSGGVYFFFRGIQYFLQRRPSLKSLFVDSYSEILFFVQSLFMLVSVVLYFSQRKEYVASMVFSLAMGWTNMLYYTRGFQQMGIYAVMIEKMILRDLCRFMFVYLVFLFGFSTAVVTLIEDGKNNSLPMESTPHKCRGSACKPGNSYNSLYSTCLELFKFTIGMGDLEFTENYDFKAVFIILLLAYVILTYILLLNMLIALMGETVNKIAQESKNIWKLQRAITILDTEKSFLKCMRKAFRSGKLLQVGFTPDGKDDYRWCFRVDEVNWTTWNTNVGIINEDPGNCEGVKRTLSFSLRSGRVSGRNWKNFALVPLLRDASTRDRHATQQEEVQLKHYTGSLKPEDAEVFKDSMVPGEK
Assign true (1) to entries whose Emax at 1 µM meets or exceeds 80%; assign false (0) to the rest.

Can COc1cc(CNC(=O)C2CCN(C(=O)O[C@@H]3CCC[C@H](C)C3)CC2)ccc1O [Example 9] be said to have Emax at 1 µM at or above 80%?
true (1)

Can COc1cc(CNC(=O)C2CCN(C(=O)Oc3ccccc3C3CCCC3)CC2)ccc1O [Example 42] be said to have Emax at 1 µM at or above 80%?
false (0)

Can COc1cc(CNC(=O)C2CN(C(=O)O[C@H]3CC[C@H](C(C)C)CC3)C2)ccc1O [Example 25] be said to have Emax at 1 µM at or above 80%?
false (0)

Can COc1cc(CNC(=O)C2CN(C(=O)OC3CC(C)(C)CC(C)(C)C3)C2)ccc1O [Example 19] be said to have Emax at 1 µM at or above 80%?
true (1)

Can COc1cc(CNC(=O)[C@@H]2CCN(C(=O)O[C@H]3CC[C@@H](C(C)(C)C)CC3)C2)ccc1O [Example 34] be said to have Emax at 1 µM at or above 80%?
false (0)

Can CCC1(CC)CCC(OC(=O)N2CC[C@H](C(=O)NCc3ccc(O)c(OC)c3)C2)CC1 [Example 29] be said to have Emax at 1 µM at or above 80%?
true (1)
